# test description: high throughput screen of components for modifying calcium oxalate crystal growth (crystal imaging)
# test settings: supersaturated calcium oxalate; amounts and concentrations in FIGS. 9A and 9B
assay readout: overall effect on calcium oxalate crystals (number of crystals)

[
  {
    "compound": "CCCN(CCC)S(=O)(=O)c1ccc(C(=O)O)cc1 [probenicid, reference compound]",
    "endpoint value": "little effect"
  },
  {
    "compound": "O=C(O)CNC(=O)c1ccccc1",
    "endpoint value": "little effect"
  },
  {
    "compound": "O=C(O)C(O)c1ccccc1 (centres unmarked)",
    "endpoint value": "little effect"
  }
]

Cited source for all entries: patent US20050233461A1
